- target under test: TcdB-GTD (Clostridioides difficile, UniProt P18177)
- Sequence (P18177 2-543 limits assumed): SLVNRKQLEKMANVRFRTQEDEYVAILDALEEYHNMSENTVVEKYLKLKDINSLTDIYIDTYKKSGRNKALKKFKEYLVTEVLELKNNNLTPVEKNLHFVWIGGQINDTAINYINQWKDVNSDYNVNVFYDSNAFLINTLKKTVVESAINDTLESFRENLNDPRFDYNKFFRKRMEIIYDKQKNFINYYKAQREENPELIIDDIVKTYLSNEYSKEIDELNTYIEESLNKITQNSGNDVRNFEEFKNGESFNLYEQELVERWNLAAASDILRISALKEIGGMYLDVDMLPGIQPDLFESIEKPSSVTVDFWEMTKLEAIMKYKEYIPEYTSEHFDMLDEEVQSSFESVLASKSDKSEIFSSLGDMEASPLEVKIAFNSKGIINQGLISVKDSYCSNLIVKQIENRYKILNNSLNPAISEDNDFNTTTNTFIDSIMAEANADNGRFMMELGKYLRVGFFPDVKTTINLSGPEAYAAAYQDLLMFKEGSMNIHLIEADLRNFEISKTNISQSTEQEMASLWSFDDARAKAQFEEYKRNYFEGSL
parameter: Kd (nM)
Just the number in nM, nothing appended.

Entry OC[C@H]1CNC[C@@H](O)[C@@H]1O : Kd on TcdB-GTD (Clostridioides difficile, UniProt P18177) = 66.9

Test item OC[C@H]1CNC(O)[C@@H](O)[C@@H]1O (some centres unmarked) ; TcdB-GTD (Clostridioides difficile, UniProt P18177); reported Kd was 180

###

- target under test: TcdA (Clostridioides difficile, UniProt P16154)
- Sequence (P16154 whole entry, looked up): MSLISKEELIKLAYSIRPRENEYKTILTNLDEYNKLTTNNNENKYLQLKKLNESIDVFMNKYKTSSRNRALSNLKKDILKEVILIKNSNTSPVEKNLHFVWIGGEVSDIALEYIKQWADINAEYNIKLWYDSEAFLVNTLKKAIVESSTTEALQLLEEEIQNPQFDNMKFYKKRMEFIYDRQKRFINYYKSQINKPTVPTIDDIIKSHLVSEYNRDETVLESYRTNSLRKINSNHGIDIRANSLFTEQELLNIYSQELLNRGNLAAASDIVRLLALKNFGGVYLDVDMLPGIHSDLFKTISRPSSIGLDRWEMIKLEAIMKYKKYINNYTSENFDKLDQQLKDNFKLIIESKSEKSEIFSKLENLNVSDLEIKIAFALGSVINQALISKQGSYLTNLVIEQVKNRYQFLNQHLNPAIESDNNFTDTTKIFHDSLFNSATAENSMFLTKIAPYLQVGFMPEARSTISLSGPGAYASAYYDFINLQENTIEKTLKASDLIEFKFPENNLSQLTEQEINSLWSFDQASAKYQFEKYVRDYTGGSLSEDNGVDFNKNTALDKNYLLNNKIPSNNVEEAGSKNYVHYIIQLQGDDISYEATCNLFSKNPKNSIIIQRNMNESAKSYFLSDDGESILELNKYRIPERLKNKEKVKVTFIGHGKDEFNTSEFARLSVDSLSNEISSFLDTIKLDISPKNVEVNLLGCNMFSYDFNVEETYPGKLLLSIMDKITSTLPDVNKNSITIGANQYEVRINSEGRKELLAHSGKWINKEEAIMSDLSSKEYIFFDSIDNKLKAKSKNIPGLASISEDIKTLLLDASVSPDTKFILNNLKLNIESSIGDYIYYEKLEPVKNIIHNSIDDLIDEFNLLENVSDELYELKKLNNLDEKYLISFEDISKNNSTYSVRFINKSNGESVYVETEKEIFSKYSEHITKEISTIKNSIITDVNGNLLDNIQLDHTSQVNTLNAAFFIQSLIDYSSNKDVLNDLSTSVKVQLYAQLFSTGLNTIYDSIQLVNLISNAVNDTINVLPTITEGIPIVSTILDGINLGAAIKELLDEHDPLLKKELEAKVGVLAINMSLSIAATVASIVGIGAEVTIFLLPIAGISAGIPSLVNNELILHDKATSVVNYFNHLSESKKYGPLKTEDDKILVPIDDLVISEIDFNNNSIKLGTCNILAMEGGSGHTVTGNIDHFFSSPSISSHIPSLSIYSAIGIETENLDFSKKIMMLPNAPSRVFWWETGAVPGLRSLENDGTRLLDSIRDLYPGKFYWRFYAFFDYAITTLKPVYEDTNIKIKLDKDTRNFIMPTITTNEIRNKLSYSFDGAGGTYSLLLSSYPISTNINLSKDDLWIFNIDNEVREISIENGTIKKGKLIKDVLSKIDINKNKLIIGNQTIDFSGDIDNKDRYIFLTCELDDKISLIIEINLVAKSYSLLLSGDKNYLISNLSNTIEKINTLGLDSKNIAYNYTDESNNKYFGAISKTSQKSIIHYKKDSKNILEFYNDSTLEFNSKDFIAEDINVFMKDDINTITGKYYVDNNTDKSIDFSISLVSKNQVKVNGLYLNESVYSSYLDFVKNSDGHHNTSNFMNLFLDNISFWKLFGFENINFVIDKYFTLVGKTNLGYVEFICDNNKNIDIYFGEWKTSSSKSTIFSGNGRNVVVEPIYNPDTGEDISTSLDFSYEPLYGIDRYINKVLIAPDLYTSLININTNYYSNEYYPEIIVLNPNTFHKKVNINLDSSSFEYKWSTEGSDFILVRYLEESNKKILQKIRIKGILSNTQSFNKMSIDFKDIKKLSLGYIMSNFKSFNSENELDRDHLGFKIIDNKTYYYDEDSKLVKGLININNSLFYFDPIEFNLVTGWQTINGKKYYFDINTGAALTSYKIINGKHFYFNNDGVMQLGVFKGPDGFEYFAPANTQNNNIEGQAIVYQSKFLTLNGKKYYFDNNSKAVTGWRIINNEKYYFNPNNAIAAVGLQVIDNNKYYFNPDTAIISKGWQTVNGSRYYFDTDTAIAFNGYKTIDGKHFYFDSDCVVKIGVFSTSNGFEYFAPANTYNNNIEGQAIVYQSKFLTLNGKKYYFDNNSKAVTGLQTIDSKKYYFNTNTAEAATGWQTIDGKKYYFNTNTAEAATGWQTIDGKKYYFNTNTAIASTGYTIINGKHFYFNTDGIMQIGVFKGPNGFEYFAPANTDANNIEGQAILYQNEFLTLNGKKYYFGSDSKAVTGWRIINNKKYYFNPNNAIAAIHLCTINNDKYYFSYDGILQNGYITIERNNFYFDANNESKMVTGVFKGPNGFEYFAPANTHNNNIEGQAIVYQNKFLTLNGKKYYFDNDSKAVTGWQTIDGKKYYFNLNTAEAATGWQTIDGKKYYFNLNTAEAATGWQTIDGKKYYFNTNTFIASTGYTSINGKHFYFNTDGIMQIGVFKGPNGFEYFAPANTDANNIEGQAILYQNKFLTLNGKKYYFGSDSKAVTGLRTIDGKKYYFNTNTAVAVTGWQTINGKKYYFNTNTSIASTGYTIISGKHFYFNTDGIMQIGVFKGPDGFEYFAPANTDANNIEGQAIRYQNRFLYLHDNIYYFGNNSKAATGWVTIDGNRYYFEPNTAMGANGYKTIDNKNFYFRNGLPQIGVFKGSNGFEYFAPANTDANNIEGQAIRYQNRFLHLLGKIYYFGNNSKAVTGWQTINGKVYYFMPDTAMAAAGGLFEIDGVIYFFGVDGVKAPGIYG
parameter: pKd
Bear in mind: pKd is minus log10 of a mol/L concentration; give just that figure.

What the record says about OC[C@H]1CNC[C@@H](O)[C@@H]1O : pKd is 8.15
